# Measurement description: physchem
# Settings: 25 °C, pH 7, water, thermodynamic from solid
Metric name: solubility (mM)
Record the value in mM, omitting the unit from your answer.

Asked: Give the reported value of solubility for this record: C[N+](C)(C)CCC[n+]1ccc(-c2cc[n+](CCC[N+](C)(C)C)cc2)cc1
Given back: 2000
